Form field: Biacore t/2 diss. [min] 25° C. murine (one value per entry).
target: Biotinylated murine soluble TWEAK (amino acids 81-225 of SEQ ID NO: 69) (murine) (UniProt O54907); assay: SPR (Biacore), biotinylated soluble TWEAK on streptavidin chip, 25 C
Please give a number only; it is taken to be in min.

Solved entries (count: 4):
Humanized <TWEAK> 305- antibody 31 (antibody, V domains shown) VH: EVQLLESGGGLVQPGGSLTLSCAASGFDFSTYYMSWVRQAPGKGLEWVSTVYVRQGTTYYASWLNGRFTISRDNSKNTLYLQMNSLRAEDTAVYYCAKGGYNYDDAFVIWGQGTLVTVSS VL: AIRMTQSPSSFSASTGDRVTITCQASQNIYSNLAWYQQKPGKAPKLLIYTASYLASGVPSRFSGSGSGTDYTLTISCLQSEDFATYYCQTAYYNSRPDTVAFGGGTKVEIK | 19
Humanized <TWEAK> 305- antibody 27 (antibody, V domains shown) VH: QVQLVQSGAEVKKPGSSVKVSCKASGFDFSTYYMSWVRQAPGQGLEWMGTVYVRQGTTYYASWLNGRVTITADESTSTAYMELSSLRSEDTAVYYCARGGYNYDDAFVIWGQGTLVTVSS VL: DIQMTQSPSSVSASVGDRVTITCQASQNIYSNLAWYQQKPGKAPKLLIYTASYLASGVPSRFSGSGSGTDYTLTISSLQPEDFATYYCQTAYYNSRPDTVAFGGGTKVEIK | 19
Humanized <TWEAK> 305- antibody 29 (antibody, V domains shown) VH: EVQLLESGGGLVQPGGSLRLSCAASGFDFSTYYMSWVRQAPGKGLEWVSTVYVRQGTTYYASWLNGRFTISRDNSKNTLDLQMNSLRAEDTAVYYCAKGGYNYDDAFVIWGQGTLVTVSS VL: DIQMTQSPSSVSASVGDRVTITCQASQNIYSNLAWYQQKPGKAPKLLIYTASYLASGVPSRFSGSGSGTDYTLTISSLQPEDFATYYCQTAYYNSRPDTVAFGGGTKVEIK | 22
Humanized <TWEAK> 305- antibody 34 (antibody, V domains shown) VH: EVQLLESGGGLVQPGGSLRLSCAASGFDFSTYYMSWVRQAPGKGLEWVSTVYVRQGTTYYASWLNGRFTISRDNSKNTLYLQMNSLRAEDTAVYYCAKGGYNYDDAFVIWGQGTLVTVSS VL: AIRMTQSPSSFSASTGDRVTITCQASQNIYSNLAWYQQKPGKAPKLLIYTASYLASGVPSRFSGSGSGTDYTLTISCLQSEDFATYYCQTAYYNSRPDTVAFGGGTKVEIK | 22

Moving on to the next binder.
Ask | I am curious: what Biacore t/2 diss. [min] 25° C. murine value has been reported for Humanized <TWEAK> 305- antibody 32 (antibody, V domains shown) VH: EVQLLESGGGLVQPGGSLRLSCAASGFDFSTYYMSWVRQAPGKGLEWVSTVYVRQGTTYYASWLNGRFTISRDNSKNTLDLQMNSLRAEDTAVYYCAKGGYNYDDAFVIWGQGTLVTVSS VL: DIQMTQSPSTLSASVGDRVTITCQASQNIYSNLAWYQQKPGKAPKLLIYTASYLASGVPSRFSGSGSGTEFTLTISSLQPDDFATYYCQTAYYNSRPDTVAFGGGTKVEIK ?
Reply | 17
